Provenance of the data: ChEMBL document CHEMBL3352105

# System: Raji
# Procedure Text: Cytotoxicity against human Raji cells after 72 hrs by MTT assay
# Type: functional, cell-based
pIC50: −log10 of the molar value.
Quick rule: pIC50 of at least 5 means 1.0, below that means 0.0.

{"Compound": "O=C(/C=C/c1ccccc1)O[C@@H]1[C@H]([C@@H](O)c2ccccc2)O[C@H]2CC(=O)O[C@@H]12 [(+)-CRASSALACTONE B]", "Class": 0.0}
{"Compound": "O=C(/C=C/c1ccccc1)O[C@@H]1[C@H]2OC(=O)C[C@H]2O[C@@H]1[C@@H](O)c1ccccc1", "Class": 0.0}
{"Compound": "O=C(/C=C/c1ccc(F)cc1)O[C@@H]1[C@H]2OC(=O)C[C@H]2O[C@@H]1[C@@H](O)c1ccccc1", "Class": 1.0}
{"Compound": "COc1ccc(/C=C/C(=O)O[C@H](c2ccccc2)[C@H]2O[C@@H]3CC(=O)O[C@@H]3[C@H]2O)cc1", "Class": 1.0}

Consider the additional compound presented here.
pIC50 >= 5 for O=C(/C=C/c1ccc(F)cc1)O[C@H](c1ccccc1)[C@H]1O[C@@H]2CC(=O)O[C@@H]2[C@H]1O ?
0.0

----------
# Procedure Text: Cytotoxicity against human HL60 cells after 72 hrs by MTT assay
# Format: functional, cell-based
# Condition Details: HL-60, 72 h
compounds and their reported pIC50
// scale note: pIC50 = -log10(conc_M); give the bare number

Answered cases to consult:
{"Compound": "O=C(/C=C/c1ccc([N+](=O)[O-])cc1)OC1C2OC(=O)CC2O[C@@H]1Cc1ccccc1 (single isomer, unassigned)", "Result Number": 6.85}
{"Compound": "COc1ccc(/C=C/C(=O)O[C@@H](c2ccccc2)[C@H]2O[C@@H]3CC(=O)O[C@@H]3[C@H]2O)cc1", "Result Number": 5.06}
{"Compound": "O=C(/C=C/c1ccccc1)OC1C2OC(=O)CC2O[C@@H]1Cc1ccccc1 (single isomer, unassigned)", "Result Number": 5.66}
{"Compound": "O=C(/C=C/c1ccccc1)O[C@@H](c1ccccc1)[C@H]1O[C@@H]2CC(=O)O[C@@H]2[C@H]1O", "Result Number": 5.87}
{"Compound": "COc1ccc(/C=C/C(=O)O[C@@H]2[C@H]3OC(=O)C[C@H]3O[C@@H]2[C@H](O)c2ccccc2)cc1", "Result Number": 4.30}

Item O=C(/C=C/c1ccc(F)cc1)O[C@H](c1ccccc1)[C@H]1O[C@@H]2CC(=O)O[C@@H]2[C@H]1O : provide pIC50
5.02

Item COc1ccc(/C=C/C(=O)O[C@@H]2[C@H]3OC(=O)C[C@H]3O[C@@H]2[C@@H](O)c2ccccc2)cc1 : provide pIC50
6.96

----------
molecules and their reported pIC50
# Test system: K562
# Procedure Text: Cytotoxicity against human K562 cells after 72 hrs by MTT assay
# Assay type: functional, cell-based
# Condition Details: K562, 72 h
// scale note: pIC50 = -log10(conc_M); give the bare number

Answered cases to consult:
{"Structure String": "O=C(/C=C/c1ccc([N+](=O)[O-])cc1)O[C@@H](c1ccccc1)[C@H]1O[C@@H]2CC(=O)O[C@@H]2[C@H]1O", "pIC50": 4.85}
{"Structure String": "COc1ccc(/C=C/C(=O)O[C@@H]2[C@H]3OC(=O)C[C@H]3O[C@@H]2[C@@H](O)c2ccccc2)cc1", "pIC50": 5.58}
{"Structure String": "COc1ccc(/C=C/C(=O)O[C@H](c2ccccc2)[C@H]2O[C@@H]3CC(=O)O[C@@H]3[C@H]2O)cc1", "pIC50": 5.49}

Turning to the following molecule.
Item O=C(/C=C/c1ccccc1)O[C@@H]1[C@H]2OC(=O)C[C@H]2O[C@@H]1[C@H](OC(=O)/C=C/c1ccccc1)c1ccccc1 : provide pIC50
4.67
